pKi: −log10 of the molar value.
Measured pKi (NMDA receptor)
MEASUREMENT NAME: pKi

N[C@@]1(c2ccccc2Cl)CCC=CC1=O [(R)-Dedhydronorketamine, (R)-dehydronorketamine]
4.13
N[C@@]1(c2ccccc2Cl)CCCCC1=O [(R)-norKetamine, (R)-norketamine]
4.58
N[C@]1(c2ccccc2Cl)CCC=CC1=O [(S)-Dehydronorketamine, (S)-dehydronorketamine]
4.41
N[C@]1(c2ccccc2Cl)CCCCC1=O [(S)-norKetamine, (S)-norketamine]
5.65

---

target: rat α3β4-nicotinic acetylcholine receptor (Rattus norvegicus, UniProt P04757+P12392); details: read-out: IC50, inhibition of (S)-nicotine-induced whole-cell current
Sequence (P04757 26-499): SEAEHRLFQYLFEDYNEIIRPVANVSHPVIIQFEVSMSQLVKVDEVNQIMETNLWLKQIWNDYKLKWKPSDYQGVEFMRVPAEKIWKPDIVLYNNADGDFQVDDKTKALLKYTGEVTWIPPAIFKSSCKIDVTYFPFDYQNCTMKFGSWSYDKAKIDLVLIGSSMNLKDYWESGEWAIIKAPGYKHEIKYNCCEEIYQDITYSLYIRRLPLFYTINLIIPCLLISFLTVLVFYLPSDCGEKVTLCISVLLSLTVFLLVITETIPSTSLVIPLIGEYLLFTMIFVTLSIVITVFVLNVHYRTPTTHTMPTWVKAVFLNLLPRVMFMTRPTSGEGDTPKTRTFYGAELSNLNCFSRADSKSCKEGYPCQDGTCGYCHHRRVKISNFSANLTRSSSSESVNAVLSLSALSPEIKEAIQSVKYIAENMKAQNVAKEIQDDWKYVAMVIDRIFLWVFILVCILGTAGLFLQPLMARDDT
Sequence (P12392 21-495): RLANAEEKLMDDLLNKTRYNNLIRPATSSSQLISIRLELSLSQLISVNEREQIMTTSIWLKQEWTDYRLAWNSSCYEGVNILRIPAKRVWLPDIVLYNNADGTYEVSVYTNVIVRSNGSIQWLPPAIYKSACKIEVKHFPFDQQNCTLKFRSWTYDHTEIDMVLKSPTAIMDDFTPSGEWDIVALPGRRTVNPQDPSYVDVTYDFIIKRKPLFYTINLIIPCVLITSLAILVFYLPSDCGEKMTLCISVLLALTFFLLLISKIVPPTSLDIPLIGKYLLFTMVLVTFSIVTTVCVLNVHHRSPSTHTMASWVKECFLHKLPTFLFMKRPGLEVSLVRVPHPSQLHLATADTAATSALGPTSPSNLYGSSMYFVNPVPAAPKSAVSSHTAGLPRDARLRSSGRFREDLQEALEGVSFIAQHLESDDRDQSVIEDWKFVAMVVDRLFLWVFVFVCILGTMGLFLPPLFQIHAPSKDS
MEASUREMENT NAME: IC50 (µM)

CNC1(c2ccccc2Cl)CCCCC1=O (racemic) [(R,S)-Ketamine, reference compound]
3.1
NC1(c2ccccc2Cl)CCCCC1=O (racemic) [(R,S)-norketamine]
9.1

---

target: rat α3β4-nicotinic acetylcholine receptor (Rattus norvegicus, UniProt P04757+P12392); settings: read-out: IC50, inhibition of (S)-nicotine-induced whole-cell current
MEASUREMENT NAME: IC50

N[C@@]1(c2ccccc2Cl)CCC[C@@H](O)C1=O [(2R,6R)-hydroxynorketamine]
> 200 µM
N[C@]1(c2ccccc2Cl)CCC[C@H](O)C1=O [(2S,6S)-hydroxynorketamine]
> 200 µM
NC1(c2ccccc2Cl)CCC=CC1=O (racemic) [(R,S)-dehydronorketamine]
> 200 µM
